Tested on: NCI-H2228
ASSAY COMMENT: relative viability (nuclei count vs DMSO), 5 days (fraction); higher = more cells survive
EXPERIMENTAL CONTEXT: first compound 0.1581 µM
The label True is reserved for relative viability strictly under 0.3; False covers values equal to or above it.

// known answers, use as guide
molecule="COc1cc2nccc(Oc3ccc(NC(=O)Nc4cc(C)on4)c(Cl)c3)c2cc1OC [Tivozanib] + C[C@@H](Oc1cc(-c2cnn(C3CCNCC3)c2)cnc1N)c1c(Cl)ccc(F)c1Cl [Crizotinib] (partner 1 µM)" group=False
molecule="Nc1ccn([C@@H]2O[C@H](CO)[C@@H](O)[C@@H]2O)c(=O)n1 [Cytarabine] + CS(=O)(=O)CCNCc1ccc(-c2ccc3ncnc(Nc4ccc(OCc5cccc(F)c5)c(Cl)c4)c3c2)o1 [Lapatinib] (partner 2 µM)" group=True
molecule="Nc1ccn([C@@H]2O[C@H](CO)[C@@H](O)[C@@H]2O)c(=O)n1 [Cytarabine] + COc1cc2c(Oc3ccc(NC(=O)C4(C(=O)Nc5ccc(F)cc5)CC4)cc3F)ccnc2cc1OCCCN1CCOCC1 [Foretinib] (partner 0.25 µM)" group=True

In: Check if relative viability falls below 0.3 for COc1cc2nccc(Oc3ccc(NC(=O)Nc4cc(C)on4)c(Cl)c3)c2cc1OC [Tivozanib] + COc1cc2c(Oc3ccc(NC(=O)C4(C(=O)Nc5ccc(F)cc5)CC4)cc3F)ccnc2cc1OCCCN1CCOCC1 [Foretinib] (partner 0.25 µM) .
Out: False

In: Check if relative viability falls below 0.3 for Nc1ccn([C@@H]2O[C@H](CO)[C@@H](O)[C@@H]2O)c(=O)n1 [Cytarabine] + CCNC(=O)c1noc(-c2cc(C(C)C)c(O)cc2O)c1-c1ccc(CN2CCOCC2)cc1 [Luminespib] (partner 0.01 µM) .
Out: True

In: Check if relative viability falls below 0.3 for COc1cc2nccc(Oc3ccc(NC(=O)Nc4cc(C)on4)c(Cl)c3)c2cc1OC [Tivozanib] + CC(C)C[C@H](NC(=O)[C@H](Cc1ccccc1)NC(=O)c1cnccn1)B(O)O [Bortezomib] (partner 0.002 µM) .
Out: False
